# system.tested: Myc proto-oncogene protein (Homo sapiens, UniProt P01106)
# Sequence (P01106 16-454): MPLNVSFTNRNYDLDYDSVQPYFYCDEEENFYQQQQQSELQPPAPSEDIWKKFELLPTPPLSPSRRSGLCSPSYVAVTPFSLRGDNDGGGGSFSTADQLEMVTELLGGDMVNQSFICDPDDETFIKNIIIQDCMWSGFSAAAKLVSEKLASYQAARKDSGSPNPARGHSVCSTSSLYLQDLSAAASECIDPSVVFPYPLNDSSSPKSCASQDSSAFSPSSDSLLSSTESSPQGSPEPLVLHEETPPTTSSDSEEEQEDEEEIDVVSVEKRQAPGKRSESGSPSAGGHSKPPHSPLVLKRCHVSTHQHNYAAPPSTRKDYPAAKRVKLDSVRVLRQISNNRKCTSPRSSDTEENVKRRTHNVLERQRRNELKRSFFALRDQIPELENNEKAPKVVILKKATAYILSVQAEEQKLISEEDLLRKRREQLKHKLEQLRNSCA
# protocol.summary: Inhibition of Myc signaling pathway in human HeLa cells assessed as inhibition of PMA induced luciferase treated 30 mins before induction
experimental.readout: pIC50
// returns pIC50 (minus log10 of molar concentration), number only

Note down pIC50 recorded for COc1cc(/C=C\c2ccc(OC)c(OC)c2)cc(OC)c1 [(Z)-3,4,3'',5''-Tetramethoxystilbene]
4.22
